# target.or.system: recombinant HLA-DRB1*01:01 protein (HLA-DR α chain with DRB1*01:01 β chain) (human)
No end group written: not given here.
Listed here are binders together with their documented Kd.
property.measured: Kd (nM)

INSERT INTO measurements (binder, recorded_measurement) VALUES
  ('TQDENPVVHFFKNIVTPRTPPPSQ (not fully specified; also: thioredoxin-fused, end not given here, biotinylated chemically (EZ-Link Sulfo-NHS-LC-biotin, 1:20), position not given here) [thioredoxin-fused MBP 81-104 (MBP epitope library), biotinylated]', 103),
  ('DAQGTLSKIFKLGGRDSRSGSPMAR (also: biotinylated, position not given here) [chemically synthesized biotinylated peptide MBP 146-170]', 52),
  ('DAQGTLSKIFKLGGRDSRSGSPMAR (not fully specified; also: thioredoxin-fused, end not given here, biotinylated chemically (EZ-Link Sulfo-NHS-LC-biotin, 1:20), position not given here) [thioredoxin-fused MBP 146-170 (MBP epitope library), biotinylated]', 101),
  ('TQDENPVVHFFKNIVTPRTPPPSQ (also: biotinylated, position not given here) [chemically synthesized biotinylated peptide MBP 81-104]', 22);

Reference for the values: paper PMC6978714
